# Target or system: HMM-mfMSR1 (monkey MSR1 extracellular domain)
# Sequence (as listed by the source): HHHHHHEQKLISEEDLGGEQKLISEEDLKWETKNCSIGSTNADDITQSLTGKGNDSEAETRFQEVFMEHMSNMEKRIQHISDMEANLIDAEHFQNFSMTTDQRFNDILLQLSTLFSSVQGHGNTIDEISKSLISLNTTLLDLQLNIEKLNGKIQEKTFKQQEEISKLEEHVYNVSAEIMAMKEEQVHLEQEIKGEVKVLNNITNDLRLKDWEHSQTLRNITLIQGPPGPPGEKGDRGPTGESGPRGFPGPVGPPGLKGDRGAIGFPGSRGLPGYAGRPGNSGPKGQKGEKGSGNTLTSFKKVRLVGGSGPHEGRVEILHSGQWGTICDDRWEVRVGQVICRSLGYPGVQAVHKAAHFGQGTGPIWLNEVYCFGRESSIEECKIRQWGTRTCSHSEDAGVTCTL
# Assay text: Biacore surface plasmon resonance binding kinetics of anti-MSR1 mAbs, antibody-capture format
# Condition set: 25° C.; analyte HMM-mfMSR1; * = no dissociation observed, kd manually fixed at 1.00E−05; NB = no binding observed
Measurement label: kd
Please don't drop the unit; write it after the number.

Ask: Quickly give me recorded kd for H1H27754P-N297Q: one of "Twelve anti-MSR1 antibodies"; "made with an N297Q single point mutation in human Fcγ portion" (antibody, V domains shown) VH: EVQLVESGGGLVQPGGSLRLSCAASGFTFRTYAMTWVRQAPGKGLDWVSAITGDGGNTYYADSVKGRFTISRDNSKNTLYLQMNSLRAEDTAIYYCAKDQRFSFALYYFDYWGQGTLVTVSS VL: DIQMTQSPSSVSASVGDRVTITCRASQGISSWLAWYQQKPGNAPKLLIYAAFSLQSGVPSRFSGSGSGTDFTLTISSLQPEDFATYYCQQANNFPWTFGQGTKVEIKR
Reply: 1.76e-05 s⁻¹
